Test system: NCI-H647
experimental-protocol: relative viability (nuclei count vs DMSO), 5 days (fraction); higher = more cells survive
test-conditions: first compound 0.01 µM
attribute-measured: relative viability
Respond using a number only.

Query: Retrieve relative viability measured for O=c1cc(N2CCOCC2)oc2c(-c3cccc4c3sc3ccccc34)cccc12 + COc1cc2c(Oc3ccc(NC(=O)C4(C(=O)Nc5ccc(F)cc5)CC4)cc3F)ccnc2cc1OCCCN1CCOCC1 [Foretinib] (partner 0.25 µM) and print it.
Response: 1.24

Query: Retrieve relative viability measured for CCN(CC)CCCCNc1ncc2cc(-c3cc(OC)cc(OC)c3)c(NC(=O)NC(C)(C)C)nc2n1 + COc1cccc2cc(-c3nc([C@H]4CC[C@H](C(=O)O)CC4)n4ncnc(N)c34)[nH]c12 [OSI-027] (partner 0.5 µM) and print it.
Response: 0.539

Query: Retrieve relative viability measured for O=c1cc(N2CCOCC2)oc2c(-c3cccc4c3sc3ccccc34)cccc12 + NC(=O)Nc1cc(-c2cccc(F)c2)sc1C(=O)N[C@H]1CCCNC1 [AZD7762] (partner 0.2 µM) and print it.
Response: 0.371

Query: Retrieve relative viability measured for CCN(CC)CCCCNc1ncc2cc(-c3cc(OC)cc(OC)c3)c(NC(=O)NC(C)(C)C)nc2n1 + COc1cc2c(Oc3ccc(NC(=O)C4(C(=O)Nc5ccc(F)cc5)CC4)cc3F)ccnc2cc1OCCCN1CCOCC1 [Foretinib] (partner 0.25 µM) and print it.
Response: 1.15

---

System: NCI-H1975
experimental-protocol: relative viability (nuclei count vs DMSO), 5 days (fraction); higher = more cells survive
test-conditions: first compound 0.08 µM
# label = t if relative viability < 0.9 else f

Query: Does the reported relative viability of COc1nc(C)cnc1NS(=O)(=O)c1cccnc1-c1ccc(-c2nnco2)cc1 [Zibotentan] + COc1cccc2cc(-c3nc([C@H]4CC[C@H](C(=O)O)CC4)n4ncnc(N)c34)[nH]c12 [OSI-027] (partner 0.5 µM) stay below 0.9?
Response: t

Query: Does the reported relative viability of O=c1cc(-c2cccc3c2Sc2ccccc2S3)oc(N2CCOCC2)c1 + C[C@]1(O)C[C@@H](c2nc(-c3ccc4ccc(-c5ccccc5)nc4c3)c3c(N)nccn32)C1 [Linsitinib] (partner 1 µM) stay below 0.9?
Response: f

Query: Does the reported relative viability of COc1nc(C)cnc1NS(=O)(=O)c1cccnc1-c1ccc(-c2nnco2)cc1 [Zibotentan] + Nc1ncn([C@H]2C[C@H](O)[C@@H](CO)O2)c(=O)n1 [Decitabine] (partner 2 µM) stay below 0.9?
Response: t

Query: Does the reported relative viability of COc1nc(C)cnc1NS(=O)(=O)c1cccnc1-c1ccc(-c2nnco2)cc1 [Zibotentan] + C[C@]1(O)C[C@@H](c2nc(-c3ccc4ccc(-c5ccccc5)nc4c3)c3c(N)nccn32)C1 [Linsitinib] (partner 1 µM) stay below 0.9?
Response: f

Query: Does the reported relative viability of O=c1cc(-c2cccc3c2Sc2ccccc2S3)oc(N2CCOCC2)c1 + C[C@@H](Oc1cc(-c2cnn(C3CCNCC3)c2)cnc1N)c1c(Cl)ccc(F)c1Cl [Crizotinib] (partner 1 µM) stay below 0.9?
Response: f

---

System: NCI-H1755
experimental-protocol: relative viability (nuclei count vs DMSO), 5 days (fraction); higher = more cells survive
test-conditions: first compound 0.01 µM
attribute-measured: relative viability

Query: Retrieve relative viability measured for O=c1cc(N2CCOCC2)oc2c(-c3cccc4c3sc3ccccc34)cccc12 + O=C(CCCCCCC(=O)Nc1ccccc1)NO [Vorinostat] (partner 1 µM) and print it.
Response: 0.828

Query: Retrieve relative viability measured for CCN(CC)CCCCNc1ncc2cc(-c3cc(OC)cc(OC)c3)c(NC(=O)NC(C)(C)C)nc2n1 + O=C(CCCCCCC(=O)Nc1ccccc1)NO [Vorinostat] (partner 1 µM) and print it.
Response: 0.71

Query: Retrieve relative viability measured for CCN(CC)CCCCNc1ncc2cc(-c3cc(OC)cc(OC)c3)c(NC(=O)NC(C)(C)C)nc2n1 + Nc1nc2[nH]cc(CCc3ccc(C(=O)N[C@@H](CCC(=O)O)C(=O)O)cc3)c2c(=O)[nH]1 [Pemetrexed] (partner 0.2 µM) and print it.
Response: 0.413

Query: Retrieve relative viability measured for O=c1cc(N2CCOCC2)oc2c(-c3cccc4c3sc3ccccc34)cccc12 + CC1(C)CCC(c2ccc(Cl)cc2)=C(CN2CCN(c3ccc(C(=O)NS(=O)(=O)c4ccc(N[C@H](CCN5CCOCC5)CSc5ccccc5)c(S(=O)(=O)C(F)(F)F)c4)cc3)CC2)C1 [Navitoclax] (partner 0.5 µM) and print it.
Response: 0.983

Query: Retrieve relative viability measured for O=c1cc(N2CCOCC2)oc2c(-c3cccc4c3sc3ccccc34)cccc12 + COc1cc2c(Oc3ccc(NC(=O)C4(C(=O)Nc5ccc(F)cc5)CC4)cc3F)ccnc2cc1OCCCN1CCOCC1 [Foretinib] (partner 0.25 µM) and print it.
Response: 0.899

Query: Retrieve relative viability measured for CCN(CC)CCCCNc1ncc2cc(-c3cc(OC)cc(OC)c3)c(NC(=O)NC(C)(C)C)nc2n1 + Cc1nc(Nc2ncc(C(=O)Nc3c(C)cccc3Cl)s2)cc(N2CCN(CCO)CC2)n1 [Dasatinib] (partner 0.075 µM) and print it.
Response: 0.394

Query: Retrieve relative viability measured for O=c1cc(N2CCOCC2)oc2c(-c3cccc4c3sc3ccccc34)cccc12 + NC(=O)Nc1cc(-c2cccc(F)c2)sc1C(=O)N[C@H]1CCCNC1 [AZD7762] (partner 0.2 µM) and print it.
Response: 0.473

Query: Retrieve relative viability measured for O=c1cc(N2CCOCC2)oc2c(-c3cccc4c3sc3ccccc34)cccc12 + Nc1nc2[nH]cc(CCc3ccc(C(=O)N[C@@H](CCC(=O)O)C(=O)O)cc3)c2c(=O)[nH]1 [Pemetrexed] (partner 0.2 µM) and print it.
Response: 0.476

The reported numbers originate from the supplement of paper PMC10307832.
